Where do the numbers come from? From ChEMBL document CHEMBL1201862.

biological target: Prothrombin (Bos taurus, UniProt P00735); assay: thrombin protease inhibitors – biochemical, fluorescence polarization, uHTS hits, dose response (AID 602369); format: functional
The source made the active and inactive calls. Cut-off read from the data, not from the text of the source: actives have a measured IC50 and inactives only a lower limit.
Property Label: IC50

For orientation, consider the following solved cases.
>>> result("COc1cc(/C=C2\\N=C3CCCCCN3C2=O)ccc1O")
"29.7 µM (active)"
>>> result("CCOC(=O)C1CCN(C(=O)CCc2nc3sc4c(c3c(=O)[nH]2)CCCC4)CC1")
"36.5 µM (active)"
>>> result("CCOC(=O)c1sc2nc3c(SCC(=O)O)cc(C(=O)c4ccccc4O)cn3c(=O)c2c1C")
"56.6 µM (active)"
>>> result("CC(=O)C1=C(O)C(=CC=Cc2ccccc2)OC1=O")
"50.4 µM (active)"
>>> result("O=C(Nc1ccc(F)cc1)Nc1nnc(-c2ccncc2)s1")
"65.5 µM (active)"

From here, focus on the item given below.
(Q) Answer briefly: IC50 recorded on Prothrombin (Bos taurus, UniProt P00735) for CC(C(=O)Nc1ccc(C(=O)O)c(O)c1)N1C(=O)/C(=C\c2ccco2)SC1=S (stereo unspecified)
(A) 98.5 µM (active)
